Target: Solute carrier family 2, facilitated glucose transporter member 1 (Homo sapiens) (UniProt P11166)
Sequence (P11166 whole entry): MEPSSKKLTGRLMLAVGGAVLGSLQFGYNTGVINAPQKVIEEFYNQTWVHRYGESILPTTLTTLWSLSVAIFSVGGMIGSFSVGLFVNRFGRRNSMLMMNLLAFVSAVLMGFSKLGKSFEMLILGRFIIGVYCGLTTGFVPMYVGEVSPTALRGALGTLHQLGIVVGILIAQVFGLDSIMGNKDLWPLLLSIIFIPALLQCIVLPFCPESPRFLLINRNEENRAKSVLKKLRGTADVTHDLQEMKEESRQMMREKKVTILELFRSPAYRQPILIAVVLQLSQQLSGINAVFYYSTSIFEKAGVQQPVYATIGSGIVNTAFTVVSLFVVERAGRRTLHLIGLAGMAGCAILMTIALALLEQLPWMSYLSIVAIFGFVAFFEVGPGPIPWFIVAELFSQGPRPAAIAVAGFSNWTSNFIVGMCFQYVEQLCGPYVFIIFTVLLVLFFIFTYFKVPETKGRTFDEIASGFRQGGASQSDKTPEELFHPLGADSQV
Assay: ST_JUDE_LEISH: Cytotoxicity at 2uM final concentration against transgenic Leishmania Mexicana promastigotes LmGLUT1 that are glucose transport deficient and complemented with the human glucose transporter GLUT1. Activity is measured by DNA content using SYBR green in vitro
Assay type: functional
quantity: inhibition (%)
One number for each entry, in %.

Worked cases, answers included:
>>> endpoint_value("CCC(CCON1C(N)=NC(N)=NC1(C)C)c1ccc(Cl)c(Cl)c1 (centres undefined)")
3.2
>>> endpoint_value("COc1ccc(NC(=O)c2ccc(-c3ccc(-c4cccnc4)cc3)c(C)c2)cc1OCCN(C)C")
1.47
>>> endpoint_value("COc1ccccc1NC(=O)Nc1cccc(-c2cccc(-c3nc4cc(C(F)(F)F)ccc4[nH]3)c2)c1")
-1.22
>>> endpoint_value("O=C(c1ccccc1)N1CCC(CN2CCOC(c3ccccc3)(c3ccccc3)C2)CC1")
3.71

Report inhibition for each item below.
1. c1ccc(CNc2nc(NCCc3c[nH]cn3)nc(NCc3cccc4ccccc34)n2)cc1
2. CN1CCc2ccc(NC(=O)Nc3cccc(C(=O)c4ccccc4)c3)cc2C1
3. CCc1ccc(CN2CCC(CNC(=O)c3cc(-c4cccc(F)c4)cs3)C2)cc1 (centres undefined)

Out:
[-1.52, 3.19, -0.39]

Below are some molecules; for each one, tell me its inhibition.
1. COc1ccc(CN(C)CCCOc2ccc(NC(=O)c3cccc4c(=O)c5cccc(F)c5[nH]c34)cc2)cc1OC
2. Cc1ccc(NC(=O)NC2CCN(c3ccnc4ccccc34)C2)cc1 (centres undefined)

Out:
[4.27, 5.83]
